# TESTED_SYSTEM: Amyloid-beta precursor protein (Homo sapiens) (UniProt P05067)
# Sequence (P05067 whole entry): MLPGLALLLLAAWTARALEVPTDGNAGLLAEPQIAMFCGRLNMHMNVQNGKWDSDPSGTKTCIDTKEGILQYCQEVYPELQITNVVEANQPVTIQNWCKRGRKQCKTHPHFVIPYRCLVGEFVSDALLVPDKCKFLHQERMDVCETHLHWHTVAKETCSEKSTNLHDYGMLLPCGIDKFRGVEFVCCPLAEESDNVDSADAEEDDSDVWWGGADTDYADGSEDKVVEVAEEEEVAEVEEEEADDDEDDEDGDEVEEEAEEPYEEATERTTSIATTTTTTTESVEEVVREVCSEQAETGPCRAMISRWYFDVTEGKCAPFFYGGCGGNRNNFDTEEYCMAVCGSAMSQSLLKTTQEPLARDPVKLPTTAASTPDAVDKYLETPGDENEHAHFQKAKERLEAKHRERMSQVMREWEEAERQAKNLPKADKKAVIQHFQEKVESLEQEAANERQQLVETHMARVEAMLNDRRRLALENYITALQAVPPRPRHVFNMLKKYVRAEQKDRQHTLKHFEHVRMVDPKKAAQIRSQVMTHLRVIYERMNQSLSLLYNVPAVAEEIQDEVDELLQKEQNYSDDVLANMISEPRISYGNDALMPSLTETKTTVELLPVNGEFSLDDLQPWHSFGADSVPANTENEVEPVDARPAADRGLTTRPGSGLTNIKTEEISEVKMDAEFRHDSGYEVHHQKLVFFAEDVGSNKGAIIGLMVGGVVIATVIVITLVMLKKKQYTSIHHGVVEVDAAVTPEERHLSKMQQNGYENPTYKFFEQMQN
# ASSAY_DETAILS: Inhibition of amyloid beta42 (unknown origin) aggregation expressed in Escherichia coli BL21 (DE3) at 10 uM measured every 5 mins by ThT fluorescence based assay relative to control
Hi, to clarify the labels: criterion met covers inhibition from 30% upward, criterion not met covers anything below 30%.

Field: example entries. Status: answers known.
MOLECULE | DISCRETE_LABEL
CN(CCOCCN1c2ccccc2Sc2ccccc21)C(CCN)C(=O)NCc1ccc(F)cc1 (stereo not given) | criterion not met
CN(CCC=C1c2ccccc2-c2ccccc21)C(CCO)C(=O)NCc1ccccc1 (stereo not given) | criterion not met
CN(CCOCCN1c2ccccc2Sc2ccccc21)C(CCN)C(=O)NCc1ccccc1Cl (stereo not given) | criterion not met
CN(CCOCCn1c2ccccc2c2ccccc21)C(CCN)C(=O)NCc1ccccc1 (stereo not given) | criterion met
CN(CCOCCN1c2ccccc2Sc2ccccc21)C(CCN)C(=O)NCc1ccccc1 (stereo not given) | criterion met

Task item: Item O=C(NCCCCCCCCNc1c2c(nc3cc(Cl)ccc13)CCCC2)c1ccc2nc(-c3ccc(Cl)cc3)c3c(c2c1)NCCC3 with inhibition of 30% or above?
Reply: criterion met

Task item: Textbook exercise: given the entry CN(CCC=C1c2ccccc2-c2ccccc21)C(CCO)C(=O)NCc1ccc(F)cc1 (stereo not given) , state whether its inhibition is greater than or equal to 30%.
Reply: criterion not met

Task item: Please check the record CN(CCOCCN1c2ccccc2Sc2ccccc21)C(CCN)C(=O)NCc1ccc(Cl)cc1 (stereo not given) and state if its inhibition is at or above 30%.
Reply: criterion met
